// reported MIC per item
test system: Escherichia coli ATCC 25922; assay: Antimicrobial MIC assay (CO-ADD) against E. coli; type: cell-based; details: Escherichia coli, ATCC25922, read-out: MIC E.c.

Consider the reported MIC for these compounds:
SMILES INPUT: C[C@H](CCC(=O)NCCCNCCCCCCCCNCCCNC(=O)CC[C@@H](C)[C@H]1CC[C@H]2[C@@H]3[C@@H](O)C[C@@H]4C[C@H](O)CC[C@]4(C)[C@H]3CC[C@]12C)[C@H]1CC[C@H]2[C@@H]3[C@@H](O)C[C@@H]4C[C@H](O)CC[C@]4(C)[C@H]3CC[C@]12C.O=C(O)C(F)(F)F.O=C(O)C(F)(F)F
MIC: > 26 µM

SMILES INPUT: C[C@H](CCC(=O)NCCCNCCCCCCCNCCCNC(=O)CC[C@@H](C)[C@H]1CC[C@H]2[C@@H]3C[C@H](O)[C@@H]4C[C@H](O)CC[C@]4(C)[C@H]3CC[C@]12C)[C@H]1CC[C@H]2[C@@H]3C[C@H](O)[C@@H]4C[C@H](O)CC[C@]4(C)[C@H]3CC[C@]12C.O=C(O)C(F)(F)F.O=C(O)C(F)(F)F
MIC: > 26 µM

Please look at the following compound next.
Record C[C@H](CCC(=O)NCCCNCCCCCCCCCCNCCCNC(=O)CC[C@@H](C)[C@H]1CC[C@H]2[C@@H]3[C@@H](O)C[C@@H]4C[C@H](O)CC[C@]4(C)[C@H]3CC[C@]12C)[C@H]1CC[C@H]2[C@@H]3[C@@H](O)C[C@@H]4C[C@H](O)CC[C@]4(C)[C@H]3CC[C@]12C.O=C(O)C(F)(F)F.O=C(O)C(F)(F)F . Reported MIC: > 25 µM

====

system: Candida albicans ATCC 90028; assay: Antimicrobial MIC assay (CO-ADD) against C. albicans; assay type: cell-based; settings: Candida albicans, ATCC90028, read-out: MIC C.a., Candida albicans ATCC 90028; mean (n = 2)
VALUE KIND: MIC (µM)
Express it in µM; write the number only.

Record C[C@H](CCC(=O)NCCCNCCCCNCCCNC(=O)CC[C@@H](C)[C@H]1CC[C@H]2[C@@H]3C[C@H](O)[C@@H]4C[C@H](O)CC[C@]4(C)[C@H]3CC[C@]12C)[C@H]1CC[C@H]2[C@@H]3C[C@H](O)[C@@H]4C[C@H](O)CC[C@]4(C)[C@H]3CC[C@]12C.O=C(O)C(F)(F)F.O=C(O)C(F)(F)F . Reported MIC: 14

Record C[C@H](CCC(=O)NCCCNCCCCCCNCCCNC(=O)CC[C@@H](C)[C@H]1CC[C@H]2[C@@H]3C[C@H](O)[C@@H]4C[C@H](O)CC[C@]4(C)[C@H]3CC[C@]12C)[C@H]1CC[C@H]2[C@@H]3C[C@H](O)[C@@H]4C[C@H](O)CC[C@]4(C)[C@H]3CC[C@]12C.O=C(O)C(F)(F)F.O=C(O)C(F)(F)F . Reported MIC: 13

Record C[C@H](CCC(=O)NCCCNCCCCCCCNCCCNC(=O)CC[C@@H](C)[C@H]1CC[C@H]2[C@@H]3[C@@H](O)C[C@@H]4C[C@H](O)CC[C@]4(C)[C@H]3CC[C@]12C)[C@H]1CC[C@H]2[C@@H]3[C@@H](O)C[C@@H]4C[C@H](O)CC[C@]4(C)[C@H]3CC[C@]12C.O=C(O)C(F)(F)F.O=C(O)C(F)(F)F . Reported MIC: 13

====

experiment: Cytotoxicity assay on HEK293; type: cell-based, human; details: human, HEK293 human embryonic kidney cells; concentration at 50% cytotoxicity on HEK293; mean (n = 2); top dose tested 32 μg/mL
// reported IC50 per item
Express it in µM; write the number only.

Consider the reported IC50 for these compounds:
COMPOUND: CC/C(=C(\c1ccccc1)c1ccc(OCCN(C)C)cc1)c1ccccc1 [Tamoxifen, reference compound]
UNIT LABEL: µM
IC50: 24
--
COMPOUND: C[C@H](CCC(=O)NCCCNCCCCCCCCCCCCNCCCNC(=O)CC[C@@H](C)[C@H]1CC[C@H]2[C@@H]3C[C@H](O)[C@@H]4C[C@H](O)CC[C@]4(C)[C@H]3CC[C@]12C)[C@H]1CC[C@H]2[C@@H]3C[C@H](O)[C@@H]4C[C@H](O)CC[C@]4(C)[C@H]3CC[C@]12C.O=C(O)C(F)(F)F.O=C(O)C(F)(F)F
UNIT LABEL: µM
IC50: 25

Please look at the following compound next.
Record C[C@H](CCC(=O)NCCCNCCCCNCCCNC(=O)CC[C@@H](C)[C@H]1CC[C@H]2[C@@H]3[C@H](O)C[C@@H]4C[C@H](O)CC[C@]4(C)[C@H]3CC[C@]12C)[C@H]1CC[C@H]2[C@@H]3[C@H](O)C[C@@H]4C[C@H](O)CC[C@]4(C)[C@H]3CC[C@]12C.O=C(O)C(F)(F)F.O=C(O)C(F)(F)F . Reported IC50: 27

====

tested on: human red blood cells; assay: Hemolytic assay; type: cell-based; details: concentration at 10% hemolytic activity on human red blood cells; mean (n = 2); top dose tested 32 μg/mL
// reported Hemolysis (HC10) per item
Express it in µM; write the number only.

SMILES INPUT: C[C@H](CCC(=O)NCCCNCCCCCCCCCCCCNCCCNC(=O)CC[C@@H](C)[C@H]1CC[C@H]2[C@@H]3[C@@H](O)C[C@@H]4C[C@H](O)CC[C@]4(C)[C@H]3CC[C@]12C)[C@H]1CC[C@H]2[C@@H]3[C@@H](O)C[C@@H]4C[C@H](O)CC[C@]4(C)[C@H]3CC[C@]12C.O=C(O)C(F)(F)F.O=C(O)C(F)(F)F
Hemolysis (HC10) (µM): 1.4
--
SMILES INPUT: C[C@H](CCC(=O)NCCCNCCCCCCCCCCNCCCNC(=O)CC[C@@H](C)[C@H]1CC[C@H]2[C@@H]3[C@@H](O)C[C@@H]4C[C@H](O)CC[C@]4(C)[C@H]3CC[C@]12C)[C@H]1CC[C@H]2[C@@H]3[C@@H](O)C[C@@H]4C[C@H](O)CC[C@]4(C)[C@H]3CC[C@]12C.O=C(O)C(F)(F)F.O=C(O)C(F)(F)F
Hemolysis (HC10) (µM): 3.3
--
SMILES INPUT: C[C@H](CCC(=O)NCCCNCCCCCCNCCCNC(=O)CC[C@@H](C)[C@H]1CC[C@H]2[C@@H]3[C@@H](O)C[C@@H]4C[C@H](O)CC[C@]4(C)[C@H]3CC[C@]12C)[C@H]1CC[C@H]2[C@@H]3[C@@H](O)C[C@@H]4C[C@H](O)CC[C@]4(C)[C@H]3CC[C@]12C.O=C(O)C(F)(F)F.O=C(O)C(F)(F)F
Hemolysis (HC10) (µM): 11

Please look at the following molecule next.
Tested system human red blood cells; Hemolysis (HC10) recorded for C[C@H](CCC(=O)NCCCNCCCCNCCCNC(=O)CC[C@@H](C)[C@H]1CC[C@H]2[C@@H]3[C@@H](O)C[C@@H]4C[C@H](O)CC[C@]4(C)[C@H]3CC[C@]12C)[C@H]1CC[C@H]2[C@@H]3[C@@H](O)C[C@@H]4C[C@H](O)CC[C@]4(C)[C@H]3CC[C@]12C.O=C(O)C(F)(F)F.O=C(O)C(F)(F)F was 7.3

====

system: Escherichia coli ATCC 25922; assay: Antimicrobial MIC assay (CO-ADD) against E. coli; type: cell-based; conditions: Escherichia coli, ATCC25922, read-out: MIC E.c.
VALUE KIND: MIC

Record C[C@H](CCC(=O)NCCCNCCCCNCCCNC(=O)CC[C@@H](C)[C@H]1CC[C@H]2[C@@H]3[C@@H](O)C[C@@H]4C[C@H](O)CC[C@]4(C)[C@H]3CC[C@]12C)[C@H]1CC[C@H]2[C@@H]3[C@@H](O)C[C@@H]4C[C@H](O)CC[C@]4(C)[C@H]3CC[C@]12C.O=C(O)C(F)(F)F.O=C(O)C(F)(F)F [Compound 8a] . Reported MIC: > 27 µM

====

tested on: Acinetobacter baumannii ATCC 19606; test: Antimicrobial MIC assay (CO-ADD) against A. baumannii; assay type: cell-based; conditions: Acinetobacter baumannii, ATCC19606, read-out: MIC A.b.
// reported MIC per item

Consider the reported MIC for these molecules:
SMILES INPUT: C[C@H](CCC(=O)NCCCNCCCCCCCNCCCNC(=O)CC[C@@H](C)[C@H]1CC[C@H]2[C@@H]3C[C@H](O)[C@@H]4C[C@H](O)CC[C@]4(C)[C@H]3CC[C@]12C)[C@H]1CC[C@H]2[C@@H]3C[C@H](O)[C@@H]4C[C@H](O)CC[C@]4(C)[C@H]3CC[C@]12C.O=C(O)C(F)(F)F.O=C(O)C(F)(F)F
SYSTEM TESTED: Acinetobacter baumannii ATCC 19606
MIC: > 26 µM

SMILES INPUT: C[C@H](CCC(=O)NCCCNCCCCCCNCCCNC(=O)CC[C@@H](C)[C@H]1CC[C@H]2[C@@H]3C[C@H](O)[C@@H]4C[C@H](O)CC[C@]4(C)[C@H]3CC[C@]12C)[C@H]1CC[C@H]2[C@@H]3C[C@H](O)[C@@H]4C[C@H](O)CC[C@]4(C)[C@H]3CC[C@]12C.O=C(O)C(F)(F)F.O=C(O)C(F)(F)F
SYSTEM TESTED: Acinetobacter baumannii ATCC 19606
MIC: > 26 µM

SMILES INPUT: C[C@H](CCC(=O)NCCCNCCCCNCCCNC(=O)CC[C@@H](C)[C@H]1CC[C@H]2[C@@H]3[C@H](O)C[C@@H]4C[C@H](O)CC[C@]4(C)[C@H]3CC[C@]12C)[C@H]1CC[C@H]2[C@@H]3[C@H](O)C[C@@H]4C[C@H](O)CC[C@]4(C)[C@H]3CC[C@]12C.O=C(O)C(F)(F)F.O=C(O)C(F)(F)F
SYSTEM TESTED: Acinetobacter baumannii ATCC 19606
MIC: 27 µM

SMILES INPUT: C[C@H](CCC(=O)NCCCNCCCCCCNCCCNC(=O)CC[C@@H](C)[C@H]1CC[C@H]2[C@@H]3[C@@H](O)C[C@@H]4C[C@H](O)CC[C@]4(C)[C@H]3CC[C@]12C)[C@H]1CC[C@H]2[C@@H]3[C@@H](O)C[C@@H]4C[C@H](O)CC[C@]4(C)[C@H]3CC[C@]12C.O=C(O)C(F)(F)F.O=C(O)C(F)(F)F
SYSTEM TESTED: Acinetobacter baumannii ATCC 19606
MIC: > 26 µM

Tested system Acinetobacter baumannii ATCC 19606; MIC recorded for C[C@H](CCC(=O)NCCCNCCCCCCCCCCCCNCCCNC(=O)CC[C@@H](C)[C@H]1CC[C@H]2[C@@H]3C[C@H](O)[C@@H]4C[C@H](O)CC[C@]4(C)[C@H]3CC[C@]12C)[C@H]1CC[C@H]2[C@@H]3C[C@H](O)[C@@H]4C[C@H](O)CC[C@]4(C)[C@H]3CC[C@]12C.O=C(O)C(F)(F)F.O=C(O)C(F)(F)F was > 25 µM

Tested system Acinetobacter baumannii ATCC 19606; MIC recorded for C[C@H](CCC(=O)NCCCNCCCCCCCCCCNCCCNC(=O)CC[C@@H](C)[C@H]1CC[C@H]2[C@@H]3[C@@H](O)C[C@@H]4C[C@H](O)CC[C@]4(C)[C@H]3CC[C@]12C)[C@H]1CC[C@H]2[C@@H]3[C@@H](O)C[C@@H]4C[C@H](O)CC[C@]4(C)[C@H]3CC[C@]12C.O=C(O)C(F)(F)F.O=C(O)C(F)(F)F was > 25 µM
